Below: a set of entries, each annotated with reported Activity.
# System: Streptococcus pneumoniae
# method.description: Antibacterial activity against Streptococcus pneumoniae S003 harboring wild-type parC and gyrA Ser81Phe mutant genes assessed as mutation prevention concentration after 48 hrs
# Assay type: functional

| compound | target.entity | Activity [µg/mL] |
| --- | --- | --- |
| O=C(O)c1cn(C2CC2)c2cc(N3CCNCC3)c(F)cc2c1=O | Streptococcus pneumoniae | 64 |
| COc1c(N2CCNC(C)C2)c(F)cc2c(=O)c(C(=O)O)cn(C3CC3)c12 (stereo not given) | Streptococcus pneumoniae | 8 |
| C[C@H]1NCc2cc(-c3ccc4c(=O)c(C(=O)O)cn(C5CC5)c4c3OC(F)F)ccc21 | Streptococcus pneumoniae | 2 |
| COc1c(N2C[C@@H]3CCCN[C@@H]3C2)c(F)cc2c(=O)c(C(=O)O)cn(C3CC3)c12 | Streptococcus pneumoniae | 4 |
| C[C@H]1COc2c(N3CCN(C)CC3)c(F)cc3c(=O)c(C(=O)O)cn1c23.C[C@H]1COc2c(N3CCN(C)CC3)c(F)cc3c(=O)c(C(=O)O)cn1c23.O | Streptococcus pneumoniae | 32 |
